- target-under-test: Ecdysone receptor (Bombyx mori) (UniProt P49881)
- Sequence (P49881 whole entry): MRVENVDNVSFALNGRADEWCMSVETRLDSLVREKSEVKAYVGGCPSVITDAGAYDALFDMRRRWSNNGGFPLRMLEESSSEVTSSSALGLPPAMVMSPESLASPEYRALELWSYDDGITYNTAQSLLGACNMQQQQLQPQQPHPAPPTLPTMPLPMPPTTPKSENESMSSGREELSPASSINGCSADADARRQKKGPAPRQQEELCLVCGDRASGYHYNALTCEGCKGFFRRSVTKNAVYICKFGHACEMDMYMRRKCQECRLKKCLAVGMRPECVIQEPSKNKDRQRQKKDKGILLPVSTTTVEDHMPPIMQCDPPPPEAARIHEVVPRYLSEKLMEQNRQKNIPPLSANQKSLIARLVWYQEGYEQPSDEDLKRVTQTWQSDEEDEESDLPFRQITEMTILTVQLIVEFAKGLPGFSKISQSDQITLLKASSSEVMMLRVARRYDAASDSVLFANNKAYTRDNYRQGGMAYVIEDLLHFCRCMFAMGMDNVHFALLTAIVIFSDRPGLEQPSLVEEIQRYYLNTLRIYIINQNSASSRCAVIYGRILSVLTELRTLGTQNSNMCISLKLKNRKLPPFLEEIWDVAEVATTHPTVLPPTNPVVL
- protocol-description: Agonist activity at ecdysone receptor in Bombyx mori Bm5 cells after 24 hr by luciferase reporter gene assay relative to tebufenozide
- Format: cell-based
Listed molecules paired with reported Efficacy
# answer = value followed by unit

>  <smiles-input>
CCCc1ccc(C(=O)NN(C(=O)c2ccccc2Cl)C(C)(C)C)cc1

>  <Efficacy>
107%

$$$$
>  <smiles-input>
Cc1ccc(C(=O)NN(C(=O)c2cc(C)cc(C)c2Cl)C(C)(C)C)cc1

>  <Efficacy>
108%

$$$$
>  <smiles-input>
Cc1cc(C)cc(C(=O)N(NC(=O)c2ccc(C(C)(C)C)cc2)C(C)(C)C)c1

>  <Efficacy>
88%

$$$$
>  <smiles-input>
CC(C)(C)N(NC(=O)c1ccc(Br)cc1)C(=O)c1ccccc1Cl

>  <Efficacy>
106%

$$$$

API: the following record is the query input.
Prompt line: Output measured Efficacy for this item: "Cc1ccccc1C(=O)N(NC(=O)c1cccc(F)c1)C(C)(C)C"
Response line: 92%
